B1: Hairpin Ribozyme (parent)
chain: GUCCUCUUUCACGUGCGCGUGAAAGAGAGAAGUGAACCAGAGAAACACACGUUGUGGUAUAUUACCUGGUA

- Variants of: B1
- protocol.description: self-cleavage, relative activity (ratio to wild type); higher = more cleavage; co-transcriptional
property.measured: self-cleavage
Answer using only a numeral; do not append any unit.

Example variants with recorded self-cleavage:
* GUCCUCUUUCACGUGCGCGUGAAAGAGAGAAGUGAAUCAGAGAAACACACGUUGUGUUAUAUUACCUGGUA [C37U G57U] | 0.221
* GUCCUCUUUCACGUGCGCGUGAAAGAGAGAAGUGAACCAGAGAAGCACACGUUGUGGUAUACUACCUGGUA [A45G U62C] | 0.0923
* GUCCCCUUUCACGCGCGCGUGAAAGAGAGAAGUGAACCAGAGAAACACACGUUGUGGUAUAUUACCUGGUA [U5C U14C] | 0.557
* GUCCUCUUUCACGUGCGCGUGCAGGAGAGAAGUGAACCAGAGAAACACACGUUGUGGUAUAUUACCUGGUA [A22C A24G] | 0.717
* GUCCUCUUUCACGUGCGCGUGAAAGAGAUAAGUGAACCAGAGAAACACACGUUGUGGUAGAUUACCUGGUA [G29U U60G] | 0.17

Q. // returns reported self-cleavage for input GUCCUCUUUUAAGUGCGCGUGAAAGAGAGAAGUGAACCAGAGAAACACACGUUGUGGUAUAUUACCUGGUA [C10U C12A]
A. 0.574

Q. Continue with GUCAUCUUUCACGUGCGCGUGAAAGAGAGAAGUGAACCAGAGAAACACACGUUGUGGUAUAUUAUCUGGUA [C4A C65U]
A. 0.137

Q. GUCCUCUUUCAAGUGCGCGUGGAAGAGAGAAGUGAACCAGAGAAACACACGUUGUGGUAUAUUACCUGGUA [C12A A22G] ?
A. 0.692

Q. Do the same for GUCCUCUUUCACGUGCGCGUGAAAGAGAGAAGUGAACGAGCGAAACACACGUUGUGGUAUAUUACCUGGUA [C38G A41C] please
A. 0.264

Q. // query: GUCCUCUUUCACGUGCGCGUGAAAGAGGGGAGUGAACCAGAGAAACACACGUUGUGGUAUAUUACCUGGUA [A28G A30G]
A. 0.218

Q. Okay, and GUCCUCUGUCACGUGCGCGUGAAAGAGAGAAGUGAACCAGAGAAACACACGCUGUGGUAUAUUACCUGGUA [U8G U52C] ?
A. 0.617

Q. Do the same for GUCCUCUUUCACGUGCGCGUGAAAGAGAGAUGUGAACCAGAGAAACACACGUUGUGGUAAAUUACCUGGUA [A31U U60A] please
A. 0.0868

Q. Also need GUCCUCUUUCACGUGCGCGUGAAAGAGAGAAGUGAACCAGAGAAACUCACGUUGUGGUAUAUUACUUGGUA [A47U C66U] , thanks.
A. 0.228

Q. Request: GUCCUCUUUCACGUGCGCGUGAAAGAGAGAAGCGAACCAGAGCAACACACGUUGUGGUAUAUUACCUGGUA [U33C A43C]
A. 0

Q. GUCCUCUUUCACGUGCGCGUGAAAGAGAGAAGUGAACCAGAGAAACACACGUUAUGGGAUAUUACCUGGUA [G54A U58G] ?
A. 0.178
